All values here come from paper PMC4251066.

test system: NO production in LPS/IFNγ-stimulated RAW 264.7 macrophages; test: Inhibition of NO production in stimulated RAW 264.7 macrophages (Griess assay); type: cell-based; conditions: Mus musculus, RAW264.7, 16 h incubation
reported_metric: IC50 (µM)
Record the value in µM, omitting the unit from your answer.

Query: Could you share which IC50 value was measured for C=C[C@@H](O)C#CC#C[C@H](/C=C\CCCCCCC)OC(=O)/C=C/c1ccc(O)c(OC)c1 [compound 9, Notoincisol A] ?
Result: 14.6

----------
Recorded EC50 for the following compounds
molecular target: human PPARγ (Homo sapiens, UniProt P37231); assay: PPARγ luciferase reporter gene transactivation in HEK-293 cells; conditions: PPARγ-driven luciferase reporter assay, 18 h
Sequence (P37231 29-505): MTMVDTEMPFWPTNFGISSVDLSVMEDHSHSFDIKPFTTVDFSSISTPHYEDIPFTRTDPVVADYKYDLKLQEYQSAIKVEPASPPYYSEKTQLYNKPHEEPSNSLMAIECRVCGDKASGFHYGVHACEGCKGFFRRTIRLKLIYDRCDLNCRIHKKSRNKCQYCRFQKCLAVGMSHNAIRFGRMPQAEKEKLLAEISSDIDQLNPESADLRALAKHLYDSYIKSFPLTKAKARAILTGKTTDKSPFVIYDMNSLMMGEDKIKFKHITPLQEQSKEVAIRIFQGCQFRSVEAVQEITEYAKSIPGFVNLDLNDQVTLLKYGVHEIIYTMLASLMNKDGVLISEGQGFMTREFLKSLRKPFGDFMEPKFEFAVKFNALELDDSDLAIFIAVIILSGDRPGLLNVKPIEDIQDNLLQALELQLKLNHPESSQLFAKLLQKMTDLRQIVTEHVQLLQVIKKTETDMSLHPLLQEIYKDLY
Numeric only. Scale: nM

Example entries begin here.
{"compound": "C=C[C@H](C#CC#C[C@@H](O)/C=C\\CCCCCCC)O[C@]1(C)CC[C@@H](O)[C@]2(C)CC[C@@H](C(C)C)[C@@H](O)[C@H]21", "measurement_unit": "nM", "EC50": 2000}
{"compound": "C=C[C@@H](O)C#CC#C[C@H](/C=C\\CCCCCCC)OC(=O)/C=C/c1ccc(O)c(OC)c1 [compound 9, Notoincisol A]", "measurement_unit": "nM", "EC50": 2300}
{"compound": "C=C[C@H](C#CC#C[C@@H](O)/C=C\\CCCCCCC)O[C@]1(C)CCC[C@]2(C)CC[C@@H](C(C)(C)O)C[C@H]21", "measurement_unit": "nM", "EC50": 1900}
{"compound": "C=C[C@H]1OCc2cc3cc(OC)c(O)cc3c(C#C[C@@H](O)/C=C\\CCCCCCC)c21 [compound 10, Notoincisol B]", "measurement_unit": "nM", "EC50": 1700}

Query: So what does the record say about EC50 for C=C[C@@H](O)C#CC#C[C@H](/C=C\CCCCCCC)O[C@]1(C)CCC[C@]2(C)CC[C@@H](C(C)(C)O)C[C@H]21 ?
Result: 1700
